Origin of the recorded values: paper PMC5540273

Listing of recorded inhibition at 1 µM by entry.
# tgt: AMPK-alpha2 (Homo sapiens, UniProt P54646)
# Sequence (P54646 whole entry): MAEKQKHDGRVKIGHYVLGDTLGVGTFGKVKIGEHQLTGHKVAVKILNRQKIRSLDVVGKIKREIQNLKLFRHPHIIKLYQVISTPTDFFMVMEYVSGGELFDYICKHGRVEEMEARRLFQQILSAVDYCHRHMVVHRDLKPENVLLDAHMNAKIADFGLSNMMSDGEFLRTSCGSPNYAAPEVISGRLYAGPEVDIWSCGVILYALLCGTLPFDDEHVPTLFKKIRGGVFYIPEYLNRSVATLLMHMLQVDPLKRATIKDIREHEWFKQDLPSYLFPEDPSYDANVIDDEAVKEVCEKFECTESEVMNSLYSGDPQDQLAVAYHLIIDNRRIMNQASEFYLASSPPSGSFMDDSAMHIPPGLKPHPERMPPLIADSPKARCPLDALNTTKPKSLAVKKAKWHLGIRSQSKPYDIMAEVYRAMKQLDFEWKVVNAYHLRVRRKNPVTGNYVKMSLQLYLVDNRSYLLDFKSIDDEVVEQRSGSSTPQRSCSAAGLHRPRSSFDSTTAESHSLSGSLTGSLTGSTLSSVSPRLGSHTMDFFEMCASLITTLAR
# procedureDetails: KINOMEscan competition binding
# conditionNotes: read-out: %Inh AMPK-alpha2
Form field: result (number plus unit)

Here's what some known entries look like.
Lookup: Report inhibition at 1 µM for Cn1cc(-c2cnc(N)c3c(-c4ccc5c(c4)CCN5C(=O)Cc4ccccc4)csc23)cn1 [UNC10225012A] please.
Found: 0%

Lookup: Report inhibition at 1 µM for COc1cccc(OC)c1C(=O)Nc1cccc(-c2nn3ccccc3c2-c2ccnc(Nc3cccc(F)c3)n2)c1 [UNC10225310A] please.
Found: 4%

Lookup: Report inhibition at 1 µM for CS(=O)(=O)Cc1ccc(Nc2nccc(-c3c(-c4cccc(NC(=O)C5CCCCC5)c4)nn4ncccc34)n2)cc1 [UNC10225159A] please.
Found: 2%

Lookup: Report inhibition at 1 µM for O=c1cc(N2CCOCC2)nc2n(Cc3cccc(Cl)c3Cl)c(C3CC3)nn12 [UNC10225469A] please.
Found: 0%

Then there is this molecule:
Lookup: Report inhibition at 1 µM for Cc1ccc(NC(=O)Nc2cccc(C(F)(F)F)c2)cc1 [UNC10225187A] please.
Found: 0%

---

# tgt: CLK1 (Homo sapiens)
# Sequence (P49759 whole entry): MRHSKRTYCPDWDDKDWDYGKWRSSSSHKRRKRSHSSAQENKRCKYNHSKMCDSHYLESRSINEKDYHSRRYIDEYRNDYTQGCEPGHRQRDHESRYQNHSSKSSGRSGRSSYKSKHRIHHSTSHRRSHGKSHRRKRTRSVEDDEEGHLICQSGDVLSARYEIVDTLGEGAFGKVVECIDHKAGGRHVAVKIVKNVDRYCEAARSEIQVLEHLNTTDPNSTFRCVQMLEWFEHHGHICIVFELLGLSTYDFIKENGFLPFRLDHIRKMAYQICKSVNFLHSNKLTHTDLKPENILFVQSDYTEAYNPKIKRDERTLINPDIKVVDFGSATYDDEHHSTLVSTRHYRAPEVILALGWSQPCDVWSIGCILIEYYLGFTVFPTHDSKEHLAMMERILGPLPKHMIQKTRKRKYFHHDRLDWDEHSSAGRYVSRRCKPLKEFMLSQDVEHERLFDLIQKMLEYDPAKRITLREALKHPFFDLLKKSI
# procedureDetails: KINOMEscan competition binding
# conditionNotes: read-out: %Inh CLK1
metricName: inhibition at 1 µM (%)
Number only, in %; omit the unit.

Lookup: Report inhibition at 1 µM for Cn1cc(-c2cnc(N)c3c(-c4ccc5c(c4)CCN5C(=O)Cc4ccccc4)csc23)cn1 [UNC10225012A] please.
Found: 15

Then there is this compound:
Lookup: Report inhibition at 1 µM for CS(=O)(=O)Cc1ccc(Nc2nccc(-c3c(-c4cccc(NC(=O)C5CCCCC5)c4)nn4ncccc34)n2)cc1 [UNC10225159A] please.
Found: 10

---

Listing of recorded inhibition at 1 µM by entry.
# tgt: ERK5 (Homo sapiens, UniProt Q13164)
# Sequence (Q13164 whole entry): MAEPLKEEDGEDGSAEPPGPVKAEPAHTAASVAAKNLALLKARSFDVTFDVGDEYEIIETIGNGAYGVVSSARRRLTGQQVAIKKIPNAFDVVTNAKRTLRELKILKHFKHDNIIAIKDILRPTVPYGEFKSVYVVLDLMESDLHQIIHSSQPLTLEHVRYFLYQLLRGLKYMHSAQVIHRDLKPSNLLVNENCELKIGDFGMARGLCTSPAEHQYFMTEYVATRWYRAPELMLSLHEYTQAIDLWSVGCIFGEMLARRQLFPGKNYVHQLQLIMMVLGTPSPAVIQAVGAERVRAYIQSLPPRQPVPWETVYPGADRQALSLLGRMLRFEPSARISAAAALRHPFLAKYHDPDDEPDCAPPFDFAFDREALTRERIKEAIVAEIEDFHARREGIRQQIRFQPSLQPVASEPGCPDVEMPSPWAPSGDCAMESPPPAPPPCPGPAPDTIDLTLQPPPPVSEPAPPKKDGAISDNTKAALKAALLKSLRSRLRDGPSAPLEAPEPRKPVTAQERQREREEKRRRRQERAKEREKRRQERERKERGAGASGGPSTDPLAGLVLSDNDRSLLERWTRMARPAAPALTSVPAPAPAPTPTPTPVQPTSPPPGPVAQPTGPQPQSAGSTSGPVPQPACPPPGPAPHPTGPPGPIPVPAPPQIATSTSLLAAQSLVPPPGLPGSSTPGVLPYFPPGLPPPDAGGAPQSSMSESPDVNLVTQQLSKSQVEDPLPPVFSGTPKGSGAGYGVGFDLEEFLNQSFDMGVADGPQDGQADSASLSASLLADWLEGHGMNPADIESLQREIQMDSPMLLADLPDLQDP
# procedureDetails: KINOMEscan competition binding
# conditionNotes: read-out: %Inh ERK5
Form field: result (number plus unit)

Lookup: Report inhibition at 1 µM for CS(=O)(=O)Cc1ccc(Nc2nccc(-c3c(-c4cccc(NC(=O)C5CCCCC5)c4)nn4ncccc34)n2)cc1 [UNC10225159A] please.
Found: 0%

Lookup: Report inhibition at 1 µM for Cc1ccc(NC(=O)Nc2cccc(C(F)(F)F)c2)cc1 [UNC10225187A] please.
Found: 5%

Lookup: Report inhibition at 1 µM for COc1cccc(OC)c1C(=O)Nc1cccc(-c2nn3ccccc3c2-c2ccnc(Nc3cccc(F)c3)n2)c1 [UNC10225310A] please.
Found: 2%

Lookup: Report inhibition at 1 µM for Cn1cc(-c2cnc(N)c3c(-c4ccc5c(c4)CCN5C(=O)Cc4ccccc4)csc23)cn1 [UNC10225012A] please.
Found: 15%

Lookup: Report inhibition at 1 µM for O=c1cc(N2CCOCC2)nc2n(Cc3cccc(Cl)c3Cl)c(C3CC3)nn12 [UNC10225469A] please.
Found: 0%

---

# tgt: CSNK1E (Homo sapiens)
# Sequence (P49674 whole entry): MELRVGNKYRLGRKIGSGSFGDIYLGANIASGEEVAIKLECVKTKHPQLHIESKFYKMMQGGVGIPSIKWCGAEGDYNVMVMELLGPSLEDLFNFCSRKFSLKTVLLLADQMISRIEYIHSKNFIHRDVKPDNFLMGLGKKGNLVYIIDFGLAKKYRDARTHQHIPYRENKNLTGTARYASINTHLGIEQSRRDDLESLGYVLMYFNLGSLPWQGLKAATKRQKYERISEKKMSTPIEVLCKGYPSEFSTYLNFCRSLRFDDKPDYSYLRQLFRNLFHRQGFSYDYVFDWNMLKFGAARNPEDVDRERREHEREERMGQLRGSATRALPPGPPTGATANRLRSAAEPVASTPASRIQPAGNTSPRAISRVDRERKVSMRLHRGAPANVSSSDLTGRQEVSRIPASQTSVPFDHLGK
# procedureDetails: KINOMEscan competition binding
# conditionNotes: read-out: %Inh CSNK1E
Listing of recorded inhibition at 1 µM by entry.
Number only, in %; omit the unit.

Lookup: Report inhibition at 1 µM for Cn1cc(-c2cnc(N)c3c(-c4ccc5c(c4)CCN5C(=O)Cc4ccccc4)csc23)cn1 [UNC10225012A] please.
Found: 1

Lookup: Report inhibition at 1 µM for O=c1cc(N2CCOCC2)nc2n(Cc3cccc(Cl)c3Cl)c(C3CC3)nn12 [UNC10225469A] please.
Found: 11

Lookup: Report inhibition at 1 µM for COc1cccc(OC)c1C(=O)Nc1cccc(-c2nn3ccccc3c2-c2ccnc(Nc3cccc(F)c3)n2)c1 [UNC10225310A] please.
Found: 64

Lookup: Report inhibition at 1 µM for Cc1ccc(NC(=O)Nc2cccc(C(F)(F)F)c2)cc1 [UNC10225187A] please.
Found: 0

Then there is this compound:
Lookup: Report inhibition at 1 µM for CS(=O)(=O)Cc1ccc(Nc2nccc(-c3c(-c4cccc(NC(=O)C5CCCCC5)c4)nn4ncccc34)n2)cc1 [UNC10225159A] please.
Found: 20

---

# tgt: BRAF (Homo sapiens, UniProt P15056)
# Sequence (P15056 whole entry): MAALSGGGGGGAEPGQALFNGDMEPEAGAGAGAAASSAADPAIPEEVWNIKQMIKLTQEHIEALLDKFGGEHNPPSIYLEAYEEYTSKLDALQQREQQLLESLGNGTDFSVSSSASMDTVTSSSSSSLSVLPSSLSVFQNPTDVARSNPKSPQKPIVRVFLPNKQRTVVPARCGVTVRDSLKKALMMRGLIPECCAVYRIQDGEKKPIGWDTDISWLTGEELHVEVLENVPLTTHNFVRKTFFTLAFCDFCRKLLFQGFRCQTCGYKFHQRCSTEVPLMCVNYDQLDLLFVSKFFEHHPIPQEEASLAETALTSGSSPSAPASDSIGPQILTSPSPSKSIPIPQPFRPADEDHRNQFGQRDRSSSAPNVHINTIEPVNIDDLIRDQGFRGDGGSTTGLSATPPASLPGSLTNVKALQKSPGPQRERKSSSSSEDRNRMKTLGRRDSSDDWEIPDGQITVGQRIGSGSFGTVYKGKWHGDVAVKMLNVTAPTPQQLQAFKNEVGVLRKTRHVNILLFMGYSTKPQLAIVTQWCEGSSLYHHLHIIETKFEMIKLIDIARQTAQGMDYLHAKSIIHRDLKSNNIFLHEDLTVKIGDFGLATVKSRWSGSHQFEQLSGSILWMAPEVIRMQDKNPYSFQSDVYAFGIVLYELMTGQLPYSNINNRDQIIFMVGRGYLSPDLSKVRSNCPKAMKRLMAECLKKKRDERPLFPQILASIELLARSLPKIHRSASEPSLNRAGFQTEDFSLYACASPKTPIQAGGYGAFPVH
# procedureDetails: KINOMEscan competition binding
# conditionNotes: read-out: %Inh BRAF
metricName: inhibition at 1 µM (%)
Number only, in %; omit the unit.

Here's what some known entries look like.
Lookup: Report inhibition at 1 µM for O=c1cc(N2CCOCC2)nc2n(Cc3cccc(Cl)c3Cl)c(C3CC3)nn12 [UNC10225469A] please.
Found: 0

Lookup: Report inhibition at 1 µM for COc1cccc(OC)c1C(=O)Nc1cccc(-c2nn3ccccc3c2-c2ccnc(Nc3cccc(F)c3)n2)c1 [UNC10225310A] please.
Found: 17

---
Lookup: Report inhibition at 1 µM for CS(=O)(=O)Cc1ccc(Nc2nccc(-c3c(-c4cccc(NC(=O)C5CCCCC5)c4)nn4ncccc34)n2)cc1 [UNC10225159A] please.
Found: 20

Lookup: Report inhibition at 1 µM for Cn1cc(-c2cnc(N)c3c(-c4ccc5c(c4)CCN5C(=O)Cc4ccccc4)csc23)cn1 [UNC10225012A] please.
Found: 0

Lookup: Report inhibition at 1 µM for Cc1ccc(NC(=O)Nc2cccc(C(F)(F)F)c2)cc1 [UNC10225187A] please.
Found: 0

---

# tgt: CAMK2B (Homo sapiens, UniProt Q13554)
# Sequence (Q13554 whole entry): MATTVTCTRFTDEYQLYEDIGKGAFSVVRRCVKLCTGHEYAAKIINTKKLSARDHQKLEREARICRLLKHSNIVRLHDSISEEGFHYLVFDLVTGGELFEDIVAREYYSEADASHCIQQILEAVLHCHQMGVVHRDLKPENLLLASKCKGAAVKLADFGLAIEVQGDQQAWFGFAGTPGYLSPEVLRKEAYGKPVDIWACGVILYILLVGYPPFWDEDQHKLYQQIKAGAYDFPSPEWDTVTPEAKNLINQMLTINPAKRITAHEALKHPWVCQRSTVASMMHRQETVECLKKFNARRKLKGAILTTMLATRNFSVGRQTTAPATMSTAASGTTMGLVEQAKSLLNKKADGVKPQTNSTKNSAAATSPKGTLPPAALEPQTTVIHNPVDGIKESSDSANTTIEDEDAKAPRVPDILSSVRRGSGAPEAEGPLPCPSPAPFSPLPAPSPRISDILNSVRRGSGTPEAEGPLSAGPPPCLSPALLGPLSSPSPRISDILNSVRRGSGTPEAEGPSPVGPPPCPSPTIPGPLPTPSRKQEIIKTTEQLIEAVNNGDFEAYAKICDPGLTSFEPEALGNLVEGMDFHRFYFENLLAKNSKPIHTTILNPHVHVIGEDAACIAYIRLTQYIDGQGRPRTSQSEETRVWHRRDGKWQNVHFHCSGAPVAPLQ
# procedureDetails: KINOMEscan competition binding
# conditionNotes: read-out: %Inh CAMK2B
metricName: inhibition at 1 µM (%)
Number only, in %; omit the unit.

Here's what some known entries look like.
Lookup: Report inhibition at 1 µM for Cc1ccc(NC(=O)Nc2cccc(C(F)(F)F)c2)cc1 [UNC10225187A] please.
Found: 25

Lookup: Report inhibition at 1 µM for O=c1cc(N2CCOCC2)nc2n(Cc3cccc(Cl)c3Cl)c(C3CC3)nn12 [UNC10225469A] please.
Found: 10

Lookup: Report inhibition at 1 µM for Cn1cc(-c2cnc(N)c3c(-c4ccc5c(c4)CCN5C(=O)Cc4ccccc4)csc23)cn1 [UNC10225012A] please.
Found: 12

Lookup: Report inhibition at 1 µM for CS(=O)(=O)Cc1ccc(Nc2nccc(-c3c(-c4cccc(NC(=O)C5CCCCC5)c4)nn4ncccc34)n2)cc1 [UNC10225159A] please.
Found: 8

Then there is this compound:
Lookup: Report inhibition at 1 µM for COc1cccc(OC)c1C(=O)Nc1cccc(-c2nn3ccccc3c2-c2ccnc(Nc3cccc(F)c3)n2)c1 [UNC10225310A] please.
Found: 6

---

# tgt: FGFR1 (Homo sapiens)
# Sequence (P11362 22-822): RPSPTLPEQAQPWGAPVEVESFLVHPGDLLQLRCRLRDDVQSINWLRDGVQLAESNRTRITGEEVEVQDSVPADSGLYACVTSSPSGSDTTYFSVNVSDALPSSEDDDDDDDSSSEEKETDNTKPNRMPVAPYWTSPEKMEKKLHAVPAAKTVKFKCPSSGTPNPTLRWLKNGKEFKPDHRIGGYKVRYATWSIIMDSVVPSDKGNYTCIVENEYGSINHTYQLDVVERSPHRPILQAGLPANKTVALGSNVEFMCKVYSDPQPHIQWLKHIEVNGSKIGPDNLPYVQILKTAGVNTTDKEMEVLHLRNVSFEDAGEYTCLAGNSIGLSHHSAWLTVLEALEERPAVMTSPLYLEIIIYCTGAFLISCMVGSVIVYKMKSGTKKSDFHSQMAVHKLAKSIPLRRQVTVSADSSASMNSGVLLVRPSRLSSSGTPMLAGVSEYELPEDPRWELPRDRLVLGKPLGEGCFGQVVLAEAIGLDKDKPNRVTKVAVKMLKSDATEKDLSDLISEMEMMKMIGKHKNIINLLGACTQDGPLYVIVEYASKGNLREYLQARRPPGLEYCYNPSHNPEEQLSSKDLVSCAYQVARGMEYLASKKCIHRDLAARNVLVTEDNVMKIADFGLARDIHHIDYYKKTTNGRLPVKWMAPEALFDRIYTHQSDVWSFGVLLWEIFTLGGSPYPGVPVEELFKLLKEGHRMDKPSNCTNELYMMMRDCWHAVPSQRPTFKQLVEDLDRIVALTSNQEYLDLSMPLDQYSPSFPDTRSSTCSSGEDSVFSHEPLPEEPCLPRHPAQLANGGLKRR
# procedureDetails: KINOMEscan competition binding
# conditionNotes: read-out: %Inh FGFR1
metricName: inhibition at 1 µM (%)
Number only, in %; omit the unit.

Lookup: Report inhibition at 1 µM for Cn1cc(-c2cnc(N)c3c(-c4ccc5c(c4)CCN5C(=O)Cc4ccccc4)csc23)cn1 [UNC10225012A] please.
Found: 28

Lookup: Report inhibition at 1 µM for CS(=O)(=O)Cc1ccc(Nc2nccc(-c3c(-c4cccc(NC(=O)C5CCCCC5)c4)nn4ncccc34)n2)cc1 [UNC10225159A] please.
Found: 0

Lookup: Report inhibition at 1 µM for O=c1cc(N2CCOCC2)nc2n(Cc3cccc(Cl)c3Cl)c(C3CC3)nn12 [UNC10225469A] please.
Found: 0

Lookup: Report inhibition at 1 µM for Cc1ccc(NC(=O)Nc2cccc(C(F)(F)F)c2)cc1 [UNC10225187A] please.
Found: 1

Then there is this compound:
Lookup: Report inhibition at 1 µM for COc1cccc(OC)c1C(=O)Nc1cccc(-c2nn3ccccc3c2-c2ccnc(Nc3cccc(F)c3)n2)c1 [UNC10225310A] please.
Found: 11

---

# tgt: UniProtKB P42679
# Sequence (P42679 whole entry): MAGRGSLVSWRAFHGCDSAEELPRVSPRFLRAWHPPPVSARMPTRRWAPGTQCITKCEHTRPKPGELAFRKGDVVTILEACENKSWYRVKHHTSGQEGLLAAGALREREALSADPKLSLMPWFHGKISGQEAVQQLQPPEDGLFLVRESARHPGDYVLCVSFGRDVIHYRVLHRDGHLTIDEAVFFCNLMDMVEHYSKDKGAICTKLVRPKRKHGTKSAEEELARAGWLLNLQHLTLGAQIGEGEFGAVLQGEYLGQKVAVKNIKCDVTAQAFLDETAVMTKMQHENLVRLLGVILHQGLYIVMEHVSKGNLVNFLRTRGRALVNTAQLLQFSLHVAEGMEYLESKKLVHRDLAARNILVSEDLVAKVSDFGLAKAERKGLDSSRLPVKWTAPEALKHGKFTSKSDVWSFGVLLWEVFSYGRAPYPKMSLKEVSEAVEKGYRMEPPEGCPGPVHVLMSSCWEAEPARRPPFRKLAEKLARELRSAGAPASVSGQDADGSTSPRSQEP
# procedureDetails: KINOMEscan competition binding
# conditionNotes: read-out: %Inh CTK
Listing of recorded inhibition at 1 µM by entry.
Number only, in %; omit the unit.

Lookup: Report inhibition at 1 µM for O=c1cc(N2CCOCC2)nc2n(Cc3cccc(Cl)c3Cl)c(C3CC3)nn12 [UNC10225469A] please.
Found: 0

Lookup: Report inhibition at 1 µM for Cn1cc(-c2cnc(N)c3c(-c4ccc5c(c4)CCN5C(=O)Cc4ccccc4)csc23)cn1 [UNC10225012A] please.
Found: 62

Lookup: Report inhibition at 1 µM for COc1cccc(OC)c1C(=O)Nc1cccc(-c2nn3ccccc3c2-c2ccnc(Nc3cccc(F)c3)n2)c1 [UNC10225310A] please.
Found: 21

Lookup: Report inhibition at 1 µM for Cc1ccc(NC(=O)Nc2cccc(C(F)(F)F)c2)cc1 [UNC10225187A] please.
Found: 0

Lookup: Report inhibition at 1 µM for CS(=O)(=O)Cc1ccc(Nc2nccc(-c3c(-c4cccc(NC(=O)C5CCCCC5)c4)nn4ncccc34)n2)cc1 [UNC10225159A] please.
Found: 38
